// reported growth for each item listed
# System: NCI-H226 lung
# Protocol: NCI-60 one-dose screen, 48 h (100 = growth as untreated, 0 = no growth, -100 = all killed)
# Measurement setup: 10 µM unless noted
About 83,000 compounds went through this panel and 20% of them were active in at least one assay; those are over-represented in the sample as a whole. Active and inactive are the calls of the source. How the source made its calls: active means growth percent below 10; inactive means the rest.

{"Compound": "COC1=CC(c2ccc[nH]2)=N/C1=C\\c1[nH]c(C)c(C(=O)CCCCC(=O)NC(C)(C)C)c1C", "growth": "37.3% (inactive)"}
{"Compound": "N=C(N)N=Nc1ccc(NN=C(N)N)c2ccccc12", "growth": "117% (inactive)"}
{"Compound": "CC1(C)C(O)NC(Cl)=C(C#N)C1(C#N)C#N (centres undefined)", "growth": "135% (inactive)"}
{"Compound": "COc1ccc(-c2nc(SCC(C)C)nc(Nc3ccc(C)cc3)c2C#N)cc1", "growth": "65.6% (inactive)"}

Recorded growth for CC(C)OCC1CO1 (centres undefined) , please?
101% (inactive)

// returns reported growth for input O=C(O)/C(Br)=C/c1c[nH]c2ccc(Br)cc12
108% (inactive)

I have this compound here, COc1ccc(CN2C(=O)/C(=C\C(=O)c3ccc(OCCN4CCCC4)cc3)c3ccccc32)cc1 , and I need its recorded growth.
87.8% (inactive)

Please give the measured growth for this compound: COC(=O)c1ccc2[nH]c(O)c(C(=Nc3ccc(N(C)C(=O)CN4CCN(C)CC4)cc3)c3cccc(OC)c3)c2c1
32.4% (inactive)

Query: growth; subject: CC(=O)c1nn(-c2ccc(C)cc2)cc1C(=O)c1cc2c(ccc3ccccc32)oc1=O
90.1% (inactive)

# query: growth of entry O=C(Nc1ccc(-n2cc(-c3ccncc3)c(-c3ccc(Cl)c(O)c3)n2)cc1)c1cc(Cl)cc(Cl)c1
111% (inactive)

For CCN(CC)c1ccc2nc3ccc(N=Nc4ccc(O)cc4)cc3[n+](-c3ccccc3)c2c1 , what is its reported growth?
98.1% (inactive)

// returns reported growth for input COc1ccc(C(=O)CN2C(=O)NC(c3ccccc3)(c3ccccc3)C2=O)cc1
93.2% (inactive)

For the compound shown here, COc1cc2ncnc(Nc3ccc4c(cnn4C(=O)Nc4ccccc4)c3)c2cc1OC , give the reported growth.
103% (inactive)

Report growth for CCCCCCNC(=O)Oc1ccc(/C(=C(/C)Cc2ccc(OC)cc2)c2ccc(OCCN(C)C)cc2)cc1 please.
85.7% (inactive)

Could you tell me which growth is on file for N#Cc1ccc(OCc2nc(N)nc(N)c2-c2ccc(Cl)c(Cl)c2)cc1 ?
45.8% (inactive)

Bench note: what growth did CC1=C[C@@H]2c3c(c(O)c(O)c4oc5cc(O)cc(O)c5c(=O)c34)[C@@H](c3cc(O)c(O)c4oc5cc(O)cc(O)c5c(=O)c34)[C@@H]2C(C)(C)C1 show?
8.46% (active)
